# protein stability index per entry
B1: CSTF3 (parent)
chain: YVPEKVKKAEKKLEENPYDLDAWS

- Variants of: B1
- test: protein stability index of a GFP-peptide fusion (GPS, HEK-293T) (PSI 1-6); higher = more stable;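 further: lentivirally expressed fusions sorted by FACS into six bins by GFP to DsRed ratio, PSI derived from sequencing read proportions per bin multiplied by bin number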
- measurement.parameters: c terminus: a fixed tail appended
Number only, please.

Here's what some known entries look like.
K11P = 2.65
Y18M = 2.58

Endpoint output: protein stability index of Y18N . Value?
2.38

Consider the variant N16D and give its measured protein stability index.
2.73

Fill in: protein stability index of Y1C is ___
4.97

Sample Y18W — what was its protein stability index?
1.61

Which protein stability index is listed for K5T ?
2.93

Consider the variant shown here: K11G What is its recorded protein stability index?
2.01

protein stability index for E4H ?
2.44

Find the recorded protein stability index belonging to E14P and report it.
3.04

Recorded protein stability index for K12N , please?
2.92

Fill blank: measured protein stability index of the variant K12G is ____.
2.68

Entry E10S has what protein stability index?
2.56

Using the record for E14H , report its protein stability index.
2.92

Please look up its protein stability index: D19G
3.95
